- runDescription: Chemical stability: degradation kinetics in acidic aqueous media (pH ca. 1.2), HPLC recovery
- Assay type: physicochemical
- measurementContext: pH value of ca. 1.2 (acetonitrile/0.1 M aqueous HCl 2:3), 37° C.
Kindly supply the reported Amount of degradation after 2 h values for the records listed here.

Inquiry: Fill in the blank: the reported Amount of degradation after 2 h of CNC(=O)c1cc(C)c(-c2ccc(F)c3c2CC[C@H]3Nc2ccc([C@H]3C[C@@H]3C(=O)O)cn2)c(C)c1 [Example 66] is ____.
Reply text: <1.0%

Inquiry: Next compound: CC(C)c1ccccc1-c1ccc(F)c2c1CC[C@H]2Nc1ccc([C@H]2C[C@@H]2C(=O)O)cn1 [Example 47]
Reply text: <0.5%

Inquiry: Next compound: Cc1cc(OCC(C)(C)C#N)cc(C)c1-c1ccc(F)c2c1CC[C@H]2Nc1ccc([C@H]2C[C@@H]2C(=O)O)cn1 [Example 35]
Reply text: <0.5%

Inquiry: Next compound: Cc1cc(OCCC(C)(C)O)cc(C)c1-c1cccc2c1CC[C@H]2Nc1ccc([C@H]2C[C@@H]2C(=O)O)cn1 [Example 2]
Reply text: <0.5%

Inquiry: Next compound: Cc1cc(OCCC(C)(C)O)cc(C)c1-c1ccc(F)c2c1CC[C@H]2Nc1ccc([C@H]2C[C@@H]2C(=O)O)cn1 [Example 4]
Reply text: <0.5%

Inquiry: Next compound: COc1cc(C)c(-c2ccc(F)c3c2CC[C@H]3Nc2ccc([C@H]3C[C@@H]3C(=O)O)cn2)c(C)c1 [Example 19]
Reply text: <1.0%

The measured values listed here are drawn from patent US9617251B2.
